Cited source: ChEMBL document CHEMBL1687887

Target: Placenta growth factor (Mus musculus)
Sequence (P49764 whole entry): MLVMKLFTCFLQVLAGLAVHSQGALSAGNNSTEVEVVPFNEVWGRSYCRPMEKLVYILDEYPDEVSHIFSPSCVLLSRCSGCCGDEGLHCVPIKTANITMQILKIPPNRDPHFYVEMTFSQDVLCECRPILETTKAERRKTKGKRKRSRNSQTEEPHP
Assay: Inhibition of mouse PlGF-VEGFR-1 interaction by ELISA
Bridge positions count the residues as written; N and C are the ends. Peptide text beside a SMILES is read from it. * marks the point of attachment. X1 = O=C(COCC(=O)*)Nc1ccc(CCC(=O)N2CCC2=O)cc1
ENDPOINT_NAME: IC50 (nM)
Express it in nM; write the number only.

Examples with answers:
1. CSCC[C@H](NC(=O)[C@@H](NC(=O)[C@H](CCCCNC(C)=O)NC(=O)[C@@H]1CSSC[C@H](NC(=O)[C@@H](NC(=O)[C@H](CC(=O)O)NC(=O)[C@H](Cc2ccccc2)NC(C)=O)C(C)C)C(=O)N[C@@H](CC(N)=O)C(=O)N[C@@H](Cc2c[nH]c3ccccc23)C(=O)N[C@@H](C(C)C)C(=O)N[C@@H](CCCCNC(=O)COCC(=O)Nc2ccc(CCC(=O)N3CCC3=O)cc2)C(=O)N[C@@H](CC(C)C)C(=O)N2CCC[C@H]2C(=O)N[C@@H](Cc2cnc[nH]2)C(=O)N1)C(C)C)C(N)=O (Ac-FDVCNWVK(X1)LPHCK(Ac)VM-NH2; disulfide 4-12) | 4
2. CSCC[C@H](NC(=O)[C@@H](NC(=O)[C@H](CCCCNC(=O)COCC(=O)Nc1ccc(CCC(=O)N2CCC2=O)cc1)NC(=O)[C@@H]1CSSC[C@H](NC(=O)[C@@H](NC(=O)[C@H](CC(=O)O)NC(=O)[C@H](Cc2ccccc2)NC(C)=O)C(C)C)C(=O)N[C@@H](CC(N)=O)C(=O)N[C@@H](Cc2c[nH]c3ccccc23)C(=O)N[C@@H](C(C)C)C(=O)N[C@@H]([C@@H](C)O)C(=O)N[C@@H](CC(C)C)C(=O)N2CCC[C@H]2C(=O)N[C@@H](Cc2cnc[nH]2)C(=O)N1)C(C)C)C(N)=O (Ac-FDVCNWVTLPHCK(X1)VM-NH2; disulfide 4-12) | 54

In the following, a different compound is considered.
Query: So what does the record say about IC50 for `CC[C@H](C)[C@@H]1NC(=O)[C@H](Cc2ccc(O)cc2)NC(=O)[C@H](Cc2cnc[nH]2)NC(=O)[C@@H](NC(=O)[C@@H](NC(=O)[C@H](CCC(=O)O)NC(=O)[C@H](Cc2ccccc2)NC(C)=O)C(C)C)CSSC[C@@H](C(=O)N[C@H](C(=O)N[C@@H](CCCN=C(N)N)C(=O)N[C@@H](Cc2ccc(O)cc2)C(N)=O)[C@@H](C)O)NC(=O)[C@H](Cc2cnc[nH]2)NC(=O)[C@@H]2CCCN2C(=O)[C@H](CC(C)C)NC(=O)[C@H](CCCCNC(=O)COCC(=O)Nc2ccc(CCC(=O)N3CCC3=O)cc2)NC1=O` ?
Response: 0.7

====

Quick reference: Kd of the listed items.
Biological target: Placenta growth factor (Homo sapiens, UniProt P49763)
Sequence (P49763 whole entry): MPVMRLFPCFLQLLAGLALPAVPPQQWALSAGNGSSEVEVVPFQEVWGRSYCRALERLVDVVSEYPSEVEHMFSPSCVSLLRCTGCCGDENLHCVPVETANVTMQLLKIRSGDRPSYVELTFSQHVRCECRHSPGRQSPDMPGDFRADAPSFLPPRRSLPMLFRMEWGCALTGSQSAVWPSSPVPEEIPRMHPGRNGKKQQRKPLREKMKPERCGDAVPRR
Assay: Binding affinity to human PlGF-1
Conditions: read-out: Kd
Bridge positions count the residues as written; N and C are the ends. Peptide text beside a SMILES is read from it. * marks the point of attachment. X1 = O=C(COCC(=O)*)Nc1ccc(CCC(=O)N2CCC2=O)cc1

Record excerpt, results attached:
1. CSCC[C@H](NC(=O)[C@@H](NC(=O)[C@H](CCCCNC(C)=O)NC(=O)[C@@H]1CSSC[C@H](NC(=O)[C@@H](NC(=O)[C@H](CC(=O)O)NC(=O)[C@H](Cc2ccccc2)NC(C)=O)C(C)C)C(=O)N[C@@H](CC(N)=O)C(=O)N[C@@H](CCCCNC(=O)COCC(=O)Nc2ccc(CCC(=O)N3CCC3=O)cc2)C(=O)N[C@@H](C(C)C)C(=O)N[C@@H]([C@@H](C)O)C(=O)N[C@@H](CC(C)C)C(=O)N2CCC[C@H]2C(=O)N[C@@H](Cc2cnc[nH]2)C(=O)N1)C(C)C)C(N)=O (Ac-FDVCNK(X1)VTLPHCK(Ac)VM-NH2; disulfide 4-12) | > 1 µM
2. CSCC[C@H](NC(=O)[C@@H](NC(=O)[C@H](CCCCNC(C)=O)NC(=O)[C@@H]1CSSC[C@H](NC(=O)[C@@H](NC(=O)[C@H](CC(=O)O)NC(=O)[C@H](Cc2ccccc2)NC(=O)COCC(=O)Nc2ccc(CCC(=O)N3CCC3=O)cc2)C(C)C)C(=O)N[C@@H](CC(N)=O)C(=O)N[C@@H](Cc2c[nH]c3ccccc23)C(=O)N[C@@H](C(C)C)C(=O)N[C@@H]([C@@H](C)O)C(=O)N[C@@H](CC(C)C)C(=O)N2CCC[C@H]2C(=O)N[C@@H](Cc2cnc[nH]2)C(=O)N1)C(C)C)C(N)=O (X1-FDVCNWVTLPHCK(Ac)VM-NH2; disulfide 4-12) | > 1 µM

API: the following record is the query input.
Query: Kd for CSCC[C@H](NC(=O)[C@@H](NC(=O)[C@H](CCCCNC(C)=O)NC(=O)[C@@H]1CSSC[C@H](NC(=O)[C@@H](NC(=O)[C@H](CC(=O)O)NC(=O)[C@H](Cc2ccccc2)NC(C)=O)C(C)C)C(=O)N[C@@H](CC(N)=O)C(=O)N[C@@H](Cc2c[nH]c3ccccc23)C(=O)N[C@@H](C(C)C)C(=O)N[C@@H]([C@@H](C)O)C(=O)N[C@@H](CC(C)C)C(=O)N2CCC[C@H]2C(=O)N[C@@H](CCCCNC(=O)COCC(=O)Nc2ccc(CCC(=O)N3CCC3=O)cc2)C(=O)N1)C(C)C)C(N)=O (Ac-FDVCNWVTLPK(X1)CK(Ac)VM-NH2; disulfide 4-12) ?
Response: > 1 µM
